Tested on: Pseudomonas aeruginosa
Test details: Antibacterial activity against Pseudomonas aeruginosa ATCC 27853by Etest method in presence of […] NAB739
Assay type: functional
Measurement name: MIC (µg/mL)
Express it in µg/mL; write the number only.

{"Molecule": "C[C@@H](O)[C@H]1C(=O)N2C(C(=O)O)=C(S[C@@H]3CN[C@H](C(=O)N(C)C)C3)[C@H](C)[C@H]12 [MEROPENEM]", "Unit annotation": "µg/mL", "MIC": 0.25}

Proceeding to the next molecule to report its MIC.
Entry CC[C@H]1OC(=O)[C@H](C)[C@@H](O[C@H]2C[C@@](C)(OC)[C@@H](O)[C@H](C)O2)[C@H](C)[C@@H](O[C@@H]2O[C@H](C)C[C@H](N(C)C)[C@H]2O)[C@](C)(OC)C[C@@H](C)C(=O)[C@H](C)[C@@H](O)[C@]1(C)O [CLARITHROMYCIN] ; MIC = 32
